Below, each entry is listed with its recorded Pigweed plant response rating (0 to 100 scale, 0 is no effect, 100 is complete control).
Tested on: pigweed (Amaranthus retroflexus)
protocol.text: Test A preemergence
Type: in vivo
conditions: Preemergence, 500 g ai/ha, visual injury approx. 10 d
outcome.measure: Pigweed plant response rating (0 to 100 scale, 0 is no effect, 100 is complete control)

INSERT INTO results (compound, recorded_number) VALUES
  ('CN1CC(c2cccc(C(F)(F)F)c2)C(C)(C(=O)Nc2ccccc2F)C1=O (stereo not shown) [Compound 428]', 20),
  ('CN1CC(c2ccc(C(F)(F)F)c(F)c2)C(C(=O)Nc2ccc(F)cc2F)C1=O (stereo not shown) [Compound 398]', 90),
  ('Cc1cc(NC(=O)C2C(=O)NCC2c2ccc(F)c(F)c2)ccc1F (stereo not shown) [Compound 412]', 0),
  ('Cc1cc(F)ccc1NC(=O)C1C(=O)N(C)CC1c1cccc(C(F)(F)F)c1 (stereo not shown) [Compound 575]', 40);
